System: rabbit serum obtained by immunizing a rabbit with the SARS-CoV strain Frankfurt 1
Format: binding
Design: unit not given here
quantity: Binding of a rabbit serum to linear peptides
# print the numeric value only

Known results for sequences:
TVSQIQLSLLKVTAF 0.6
ITMTTVYHITVSQIQ 0.3
YDYCIPYNSVTDTIV 0.1
PFGWLVIGVAFLAVF 1.1
CAYCCNIVNVSLVKP 0.6

The observed Binding of a rabbit serum to linear peptides for VYYQLESTQITTDTG when tested with rabbit serum obtained by immunizing a rabbit with the SARS-CoV strain Frankfurt 1 stands at 0.1

Simply: TIVVTEGDGISTPKL , rabbit serum obtained by immunizing a rabbit with the SARS-CoV strain Frankfurt 1, Binding of a rabbit serum to linear peptides = 0.1

For SSLTSLLKTHRMCKY on rabbit serum obtained by immunizing a rabbit with the SARS-CoV strain Frankfurt 1, measured Binding of a rabbit serum to linear peptides was 0.3

The measured Binding of a rabbit serum to linear peptides that FFTLGSITAQPVKID showed for rabbit serum obtained by immunizing a rabbit with the SARS-CoV strain Frankfurt 1 is 1.1

###

Test system: antibodies in sera from SARS patients (sera 1a, 1b, 2, 6, 37, 62, London, SARS-yellow, SARS-green)
Format: binding, human
Entries and their Binding of serum SARS-yellow to looped/cyclic peptides of protein X5 of SARS-CoV Urbani

Answered examples (4):
NTRGNTYSTAWLCAL 0.5
QTAAFRDVLVVLNKR 0.4
AAFRDVLVVLNKRTN 0.3
AWLCALGKVLPFHRW 0.5

Looking up YSTAWLCALGKVLPF , I found its Binding of serum SARS-yellow to looped/cyclic peptides of protein X5 of SARS-CoV Urbani recorded as 0.9

The sequence listed as TRGNTYSTAWLCALG has a reported Binding of serum SARS-yellow to looped/cyclic peptides of protein X5 of SARS-CoV Urbani of 0.3

What the record says about PAGGALIARCWYLHE : Binding of serum SARS-yellow to looped/cyclic peptides of protein X5 of SARS-CoV Urbani is 0.5

Consider FHRWHTMVQTCTPNV . Its measured Binding of serum SARS-yellow to looped/cyclic peptides of protein X5 of SARS-CoV Urbani is 0.4

The recorded Binding of serum SARS-yellow to looped/cyclic peptides of protein X5 of SARS-CoV Urbani for CTPNVTINCQDPAGG is 0.4

###

Binding of serum 37 to linear peptides of protein N of SARS-CoV Urbani values for the sequences below.
Test system: antibodies in sera from SARS patients (sera 1a, 1b, 2, 6, 37, 62, London, SARS-yellow, SARS-green)
Type: binding, human
Set-up: unit not given here
Just the number, please, no unit attached.

Some solved entries appear below for comparison.
KTFPPTEPKKDKKKK 0.8
NVILLNKHIDAYKTF 0.7

sequence KQPTVTLLPAADMDD , Binding of serum 37 to linear peptides of protein N of SARS-CoV Urbani observed: 1.2

Per the record, PTDSTDNNQNGGRNG has Binding of serum 37 to linear peptides of protein N of SARS-CoV Urbani of 1.2

Query APRITFGGPTDSTDN yields Binding of serum 37 to linear peptides of protein N of SARS-CoV Urbani of 0.8

Sample PKQRRPQGLPNNTAS ; Binding of serum 37 to linear peptides of protein N of SARS-CoV Urbani observed: 0.9

Briefly, Binding of serum 37 to linear peptides of protein N of SARS-CoV Urbani measured for GDGKMKELSPRWYFY : 0.5

Binding of serum 37 to linear peptides of protein N of SARS-CoV Urbani reported for this sequence KDHIGTRNPNNNAAT : 0.9

Summary for this sequence, WYFYYLGTGPEASLP : Binding of serum 37 to linear peptides of protein N of SARS-CoV Urbani is 0.9

meta.source: patent US20070128217A1
